# Condition notes: both, human, plasma, po, AUCinf, geometric mean (geometric %CV), ertugliflozin 15-mg/sitagliptin 100-mg FDC tablet, single oral dose, healthy subjects, fed (high-fat breakfast)
Measured metric: AUC(0-inf) (µM·h)
# unit: µM·h | format: bare number

According to the records, this compound N[C@@H](CC(=O)N1CCn2c(nnc2C(F)(F)F)C1)Cc1cc(F)c(F)cc1F [Sitagliptin] displays AUC(0-inf) of 7.1

###

# Condition notes: both, human, plasma, po, Cmax, geometric mean (geometric %CV), ertugliflozin 15-mg/sitagliptin 100-mg FDC tablet, single oral dose, healthy subjects, fasted
Measured metric: Cmax (ng/mL)
# unit: ng/mL | format: bare number

According to the records, this compound CCOc1ccc(Cc2cc([C@]34OC[C@](CO)(O3)[C@@H](O)[C@H](O)[C@H]4O)ccc2Cl)cc1 [Ertugliflozin] displays Cmax of 223

###

# Condition notes: both, human, plasma, po, t1/2, arithmetic mean ± SD, ertugliflozin 7.5-mg/metformin 1000-mg FDC tablet, single oral dose, healthy subjects, fed (high-fat breakfast)
Measured metric: half-life (h)
# unit: h | format: bare number

According to the records, this molecule CCOc1ccc(Cc2cc([C@]34OC[C@](CO)(O3)[C@@H](O)[C@H](O)[C@H]4O)ccc2Cl)cc1 displays half-life of 11.2

###

# Experiment summary: Food-effect pharmacokinetic study of ertugliflozin 15-mg tablet
# Condition notes: both, human, plasma, po, 15 mg
Measured metric: half-life (h)
# unit: h | format: bare number

According to the records, this molecule CCOc1ccc(Cc2cc([C@]34OC[C@](CO)(O3)[C@@H](O)[C@H](O)[C@H]4O)ccc2Cl)cc1 displays half-life of 11.5

###

Cmax by entry:
# Condition notes: both, human, plasma, po, Cmax, arithmetic mean ± SD, ertugliflozin 7.5-mg/metformin 1000-mg FDC tablet, single oral dose, healthy subjects, fed (high-fat breakfast)
Value and unit, in that order.

molecule_smiles=CCOc1ccc(Cc2cc([C@]34OC[C@](CO)(O3)[C@@H](O)[C@H](O)[C@H]4O)ccc2Cl)cc1 result="82.3 ng/mL"

Here is another compound to look at.
According to the records, this compound CN(C)C(=N)N=C(N)N displays Cmax of 1520 ng/mL

###

# Experiment summary: Food-effect pharmacokinetic study of ertugliflozin 15-mg tablet
# Condition notes: both, human, plasma, po, 15 mg, AUClast, geometric mean (geometric %CV), ertugliflozin 15-mg tablet, single oral dose, healthy subjects, fed (high-fat breakfast)
Measured metric: AUC(0-t) (ng·h/mL)
# unit: ng·h/mL | format: bare number

According to the records, this compound CCOc1ccc(Cc2cc([C@]34OC[C@](CO)(O3)[C@@H](O)[C@H](O)[C@H]4O)ccc2Cl)cc1 displays AUC(0-t) of 1220

###

Cmax by entry:
# Condition notes: both, human, plasma, po, Cmax, geometric mean (geometric %CV), ertugliflozin 7.5-mg/metformin 1000-mg FDC tablet, single oral dose, healthy subjects, fasted
Value and unit, in that order.

molecule_smiles=CCOc1ccc(Cc2cc([C@]34OC[C@](CO)(O3)[C@@H](O)[C@H](O)[C@H]4O)ccc2Cl)cc1 measured_metric=Cmax result="126 ng/mL"

According to the records, this compound CN(C)C(=N)N=C(N)N displays Cmax of 2040 ng/mL

###

# Condition notes: both, human, plasma, po, Tmax, median (range), ertugliflozin 15-mg/sitagliptin 100-mg FDC tablet, single oral dose, healthy subjects, fed (high-fat breakfast)
Measured metric: Tmax (h)
# unit: h | format: bare number

molecule_smiles=CCOc1ccc(Cc2cc([C@]34OC[C@](CO)(O3)[C@@H](O)[C@H](O)[C@H]4O)ccc2Cl)cc1 measured_metric=Tmax readout_number=2

According to the records, this compound N[C@@H](CC(=O)N1CCn2c(nnc2C(F)(F)F)C1)Cc1cc(F)c(F)cc1F displays Tmax of 1.8

###

# Condition notes: read-out: Cmax, geometric mean (geometric %CV); ertugliflozin 15-mg/sitagliptin 100-mg FDC tablet, single oral dose, healthy subjects, plasma, fed (high-fat breakfast); 1.00 ng/mL = 2.46 nM
Measured metric: Cmax (µM)
# unit: µM | format: bare number

According to the records, this molecule N[C@@H](CC(=O)N1CCn2c(nnc2C(F)(F)F)C1)Cc1cc(F)c(F)cc1F displays Cmax of 0.721

###

# Condition notes: both, human, plasma, po
Measured metric: Tmax (h)
# unit: h | format: bare number

According to the records, this molecule CN(C)C(=N)N=C(N)N displays Tmax of 2.3

###

# Experiment summary: Food-effect pharmacokinetic study of ertugliflozin 15-mg tablet
# Condition notes: both, human, plasma, po, 15 mg, AUCinf, geometric mean (geometric %CV), ertugliflozin 15-mg tablet, single oral dose, healthy subjects, fasted
Measured metric: AUC(0-inf) (ng·h/mL)
# unit: ng·h/mL | format: bare number

According to the records, this molecule CCOc1ccc(Cc2cc([C@]34OC[C@](CO)(O3)[C@@H](O)[C@H](O)[C@H]4O)ccc2Cl)cc1 displays AUC(0-inf) of 1330

###

# Condition notes: both, human, plasma, po, AUCinf, geometric mean (geometric %CV), ertugliflozin 15-mg/sitagliptin 100-mg FDC tablet, single oral dose, healthy subjects, fasted
Measured metric: AUC(0-inf)
Value and unit, in that order.

According to the records, this compound CCOc1ccc(Cc2cc([C@]34OC[C@](CO)(O3)[C@@H](O)[C@H](O)[C@H]4O)ccc2Cl)cc1 displays AUC(0-inf) of 1170 ng·h/mL

###

# Condition notes: both, human, plasma, po, AUCinf, arithmetic mean ± SD, ertugliflozin 7.5-mg/metformin 1000-mg FDC tablet, single oral dose, healthy subjects, fed (high-fat breakfast)
Measured metric: AUC(0-inf) (ng·h/mL)
# unit: ng·h/mL | format: bare number

According to the records, this compound CCOc1ccc(Cc2cc([C@]34OC[C@](CO)(O3)[C@@H](O)[C@H](O)[C@H]4O)ccc2Cl)cc1 displays AUC(0-inf) of 621
